TEST_SYSTEM: 11β-HSD1 (Homo sapiens, UniProt P28845)
Sequence (P28845 whole entry): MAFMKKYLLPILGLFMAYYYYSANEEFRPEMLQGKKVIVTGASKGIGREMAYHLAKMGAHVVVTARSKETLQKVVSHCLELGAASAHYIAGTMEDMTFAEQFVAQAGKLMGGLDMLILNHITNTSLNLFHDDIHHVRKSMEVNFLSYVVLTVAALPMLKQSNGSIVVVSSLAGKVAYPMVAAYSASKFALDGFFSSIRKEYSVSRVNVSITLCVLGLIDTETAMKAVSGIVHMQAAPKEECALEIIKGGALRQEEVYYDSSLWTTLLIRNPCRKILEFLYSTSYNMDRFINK
TEST_NAME: Inhibition of a microsomal preparation of 11β-HSD1, scintillation proximity assay
Type: biochemical
Parameters: expressed in transfected cells; host or cells: CHO cells (microsomes)
EXPERIMENTAL_CONTEXT: microsomes from CHO cells overexpressing human 11β-HSD1
pIC50: −log10 of the molar value.
REPORTED_ENDPOINT: pIC50

Example results:
COC(=O)NC(C)(C)C#Cc1ccc([C@H](C)N2CC[C@](CC(C)(C)O)(c3ccccc3)OC2=O)cc1 [Example 18] :: 8.43
C[C@@H](c1ccc(C#CC2(O)CNC2)cc1)N1CC[C@](CC(C)(C)O)(c2ccccc2)OC1=O [Example 24] :: 7.21
COc1cc(C#Cc2ccc([C@H](C)N3CC[C@](CC(C)(C)O)(c4ccccc4)OC3=O)cc2)ccn1 [Example 28] :: 8.77

(I) C[C@@H](c1ccc(C#Cc2cc[nH]c(=O)c2)cc1)N1CC[C@](CC(C)(C)O)(c2ccccc2)OC1=O [Example 29]
(II) CNC(=O)NC(C)(C)C#Cc1ccc([C@H](C)N2CC[C@](CC(C)(C)O)(c3ccccc3)OC2=O)cc1 [Example 20]
(III) C[C@@H](c1ccc(C#CC(C)(C)NC(=O)C2CC2)cc1)N1CC[C@](CC(C)(C)O)(c2ccccc2)OC1=O [Example 8]
rank_up(items): orders items by reported pIC50 in ascending numerical order. List labels; respect the requested ordering.
III, II, I

Provenance of the data: patent US8883778B2
